Just for reference, PubChem BioAssay (NCI) is where these values come from.

Test system: MCF7 breast
Assay: NCI-60 one-dose screen, 48 h (100 = growth as untreated, 0 = no growth, -100 = all killed)
Details: 10 µM unless noted
About 83,000 compounds went through this panel and 20% of them were active in at least one assay; those are over-represented in the sample as a whole.
ENDPOINT: growth (%)
Answer with a number only, understood to be in %.

MOLECULE | ENDPOINT | U | EXPERIMENTAL_VALUE
CCc1c(C(=O)N[C@@H]2c3cc(Cl)ccc3CC[C@@H]2O)[nH]c(C)c1C(C)=O | growth | % | 85.3

Recall the recorded growth for CC(=O)OCCc1ccccc1 with MCF7 breast and state it. 103

What about N#Cc1c(-c2ccccc2)nc(SCC2CO2)nc1N1CCOCC1 (stereo unspecified) ? 44.8

What about CNC=O ? 99.3

What about CCOC(=O)C1=C(C)NC(SCc2nnc(-c3ccc(Cl)cc3)o2)=NC1c1ccc(Cl)cc1Cl (stereo unspecified) ? 32
